- TARGET OR TEST SYSTEM: human TCR(2XN9)/CD3 expressed on CHO-K1 cells (human)
- METHOD DESCRIPTION: flow cytometry, CHO-K1 human TCR(2XN9)/CD3 cells
READOUT TYPE: EC50 (nM)
Answers are plain numbers, in nM.

INSERT INTO results (binder, result_units, reported) VALUES
  ('T017000068 (bispecific antibody) EVQLVESGGGLVQPGGSLRLSCTFSGGTFSSYTMGWFRQAPGKEREFVAEVRWGGVTTYSNSLKDRFSISEDSVKNAVYLQMNSLKPEDTAVYYCAAVRQMYMTVVPDYWGQGTLVTVSSGGGGSGGGGSGGGGSGGGGSGGGGSGGGGSGGGGSEVQLVESGGGLVQPGGSLRLSCITSGETFKINIWGWYRQAPGKQRELVASLTIGGATNYADSVKGRFTISEDSAKNTVYLQMNSLKPEDTAVYFCNAKSRLYPYDYWGQGTLVTVSSGAADYKDHDGDYKDHDIDYKDDDDKGAAHHHHHH', 'nM', 190),
  ('T017000055 (bispecific antibody) EVQLVESGGGLVQPGGSLRLSCTFSGGTFSSYTMGWFRQAPGKEREFVAEVRWGGVTTYSNSLKDRFSISEDSVKNAVYLQMNSLKPEDTAVYYCAAVRQMYMTVVPDYWGQGTLVTVSSGGGGSGGGGSGGGGSGGGGSGGGGSGGGGSGGGGSEVQLVESGGGLVQPGGSLRLSCAASGDVHKINILGWYRQAPAKEREMVAHITIGDATDYADSAKGRFTISRDEAKNMVYLQMNSLKPEDTAVYFCRAYSRIYPYNYWGQGTLVTVSSGAADYKDHDGDYKDHDIDYKDDDDKGAAHHHHHH', 'nM', 110),
  ('T017000038 (bispecific antibody) EVQLVESGGGLVQPGGSLRLSCAASGEIGRINFYRWYRQAPGNQREVVATITIADKTDYADSAKGRFTISRDESRNMVYLQMSSLKPEDTAVYFCHAGSRLYPYDYWGQGTLVTVSSGGGGSGGGGSGGGGSGGGGSGGGGSGGGGSGGGGSEVQLVESGGGLVQPGGSLRLSCTFSGGTFSSYTMGWFRQAPGKEREFVAEVRWGGVTTYSNSLKDRFSISEDSVKNAVYLQMNSLKPEDTAVYYCAAVRQMYMTVVPDYWGQGTLVTVSSGAADYKDHDGDYKDHDIDYKDDDDKGAAHHHHHH', 'nM', 17),
  ('T017000076 (bispecific antibody) EVQLVESGGGLVQPGGSLRLSCTFSGGTFSSYTMGWFRQAPGKEREFVAEVRWGGVTTYSNSLKDRFSISEDSVKNAVYLQMNSLKPEDTAVYYCAAVRQMYMTVVPDYWGQGTLVTVSSGGGGSGGGGSGGGGSGGGGSGGGGSGGGGSGGGGSEVQLVESGGGLVQPGGSLRLSCVASGDVHKINFLGWYRQAPGKEREKVAHISIGDQTDYADSAKGRFTISRDESKNMVYLQMNSLKPEDTAVYFCRAFSRIYPYDYWGQGTLVTVSSGAADYKDHDGDYKDHDIDYKDDDDKGAAHHHHHH', 'nM', 78),
  ('T017000042 (bispecific antibody) EVQLVESGGGLVQPGGSLRLSCAASGDVHKINILGWYRQAPAKEREMVAHITIGDATDYADSAKGRFTISRDEAKNMVYLQMNSLKPEDTAVYFCRAYSRIYPYNYWGQGTLVTVSSGGGGSGGGGSGGGGSGGGGSGGGGSGGGGSGGGGSEVQLVESGGGLVQPGGSLRLSCTFSGGTFSSYTMGWFRQAPGKEREFVAEVRWGGVTTYSNSLKDRFSISEDSVKNAVYLQMNSLKPEDTAVYYCAAVRQMYMTVVPDYWGQGTLVTVSSGAADYKDHDGDYKDHDIDYKDDDDKGAAHHHHHH', 'nM', 17),
  ('T017000074 (bispecific antibody) EVQLVESGGGLVQPGGSLRLSCVASGDVHKINFLGWYRQAPGKEREKVAHISIGDQTDYADSAKGRFTISRDESKNMVYLQMNSLKPEDTAVYFCRAFSRIYPYDYWGQGTLVTVSSGGGGSGGGGSGGGGSGGGGSGGGGSGGGGSGGGGSEVQLVESGGGLVQPGGSLRLSCTFSGGTFSSYTMGWFRQAPGKEREFVAEVRWGGVTTYSNSLKDRFSISEDSVKNAVYLQMNSLKPEDTAVYYCAAVRQMYMTVVPDYWGQGTLVTVSSGAADYKDHDGDYKDHDIDYKDDDDKGAAHHHHHH', 'nM', 16),
  ('T017000051 (bispecific antibody) EVQLVESGGGLVQPGGSLRLSCTFSGGTFSSYTMGWFRQAPGKEREFVAEVRWGGVTTYSNSLKDRFSISEDSVKNAVYLQMNSLKPEDTAVYYCAAVRQMYMTVVPDYWGQGTLVTVSSGGGGSGGGGSGGGGSGGGGSGGGGSGGGGSGGGGSEVQLVESGGGLVQPGGSLRLSCAASGEIGRINFYRWYRQAPGNQREVVATITIADKTDYADSAKGRFTISRDESRNMVYLQMSSLKPEDTAVYFCHAGSRLYPYDYWGQGTLVTVSSGAADYKDHDGDYKDHDIDYKDDDDKGAAHHHHHH', 'nM', 460);

Would you mind telling me what EC50 value was observed for T017000031 (bispecific antibody) EVQLVESGGGLVQPGGSLRLSCITSGETFKINIWGWYRQAPGKQRELVASLTIGGATNYADSVKGRFTISEDSAKNTVYLQMNSLKPEDTAVYFCNAKSRLYPYDYWGQGTLVTVSSGGGGSGGGGSGGGGSGGGGSGGGGSGGGGSGGGGSEVQLVESGGGLVQPGGSLRLSCTFSGGTFSSYTMGWFRQAPGKEREFVAEVRWGGVTTYSNSLKDRFSISEDSVKNAVYLQMNSLKPEDTAVYYCAAVRQMYMTVVPDYWGQGTLVTVSSGAADYKDHDGDYKDHDIDYKDDDDKGAAHHHHHH ?
20
